B1: POU domain, class 3, transcription factor 1, residues 247 to 324; numbered along this chain, Q03052 (parent)
chain: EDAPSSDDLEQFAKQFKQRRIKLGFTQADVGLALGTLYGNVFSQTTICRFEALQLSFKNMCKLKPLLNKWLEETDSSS

Variants of: B1
method: abundance fitness (aPCA) (normalised: wild type 0, dead -1); higher = more abundant; growth selection in yeast, the domain comes from the species named
condition_parameters: Homo sapiens
measured_endpoint: abundance fitness

EDAPSSDDLEQFAKQFKQRRIKLGFTQADVGLALGTLYGNVFSITTICRFEALQLSFKNMCKLKPLLNKWLEETDSSS [Q44I] | -0.472
EDAPSSDDLEQFAKQFKQRRIKLGFTQADVGLALGTLYGNVFSQTTICRFEALQLSFKNMCKLKPLFNKWLEETDSSS [L67F] | -0.698
EDAPSSDDLEQFAKQFKQRRIKLGFTQADVGLALGTLYGNVFSQTTICRFEALQLSFKNMCKLKPFLNKWLEETDSSS [L66F] | -0.031
EDAPSSDDLEQFAKQFKQRRIKLSFTQADVGLALGTLYGNVFSQTTICRFEALQLSFKNMCKLKPLLNKWLEETDSSS [G24S] | -0.454
EDAPSSDDLEQFAKQFKQRRIKLGFTQADVGLALGTLYGNVFSQTTICRFEALQLSFKNMCKLKPLLHKWLEETDSSS [N68H] | 0.108
EDAPSSDDLEQFAKQFKQRRIKLGFTQADVALALGTLYGNVFSQTTICRFEALQLSFKNMCKLKPLLNKWLEETDSSS [G31A] | 0.161
EDAPSSDDLEQFAKQFKQRRIKLGFTQADVGLALQTLYGNVFSQTTICRFEALQLSFKNMCKLKPLLNKWLEETDSSS [G35Q] | -0.125
EDAPSSDDLEQFAKQFKQRRIKLGFTQADVGLALGTLYGNVFSQTTICRFEALQLSFKNMCKLKPLLRKWLEETDSSS [N68R] | -0.086
EDAPSSDDLEQFAKQFKQRRIKLGFTQADVGLALGTLYGNVFSQTTICRFEALQLSFKNMCKLCPLLNKWLEETDSSS [K64C] | -0.38
EDAPSSDDLEQFAKQFKQRRIKLGFTQASVGLALGTLYGNVFSQTTICRFEALQLSFKNMCKLKPLLNKWLEETDSSS [D29S] | -0.28
EDAPSSDDLEQFAKQFKQRRIKLGFTQADVGLALGTLYGNVFSQTTICRFEALQLSFKNMCKLKPLLNKWLEETDSSW [S78W] | -0.189
EDAPSSDDLEQFAKQFKQRRIKLGFTQADVGLALGTLYGTVFSQTTICRFEALQLSFKNMCKLKPLLNKWLEETDSSS [N40T] | 0.031
EDAPSSDDLEQFAKQFKQRRIKLGFTQADVGLALGTLYTNVFSQTTICRFEALQLSFKNMCKLKPLLNKWLEETDSSS [G39T] | -0.196
EDAPSSDDLEQFAKQFKQRRIKLGFTQADVGLALGTLYGNVFSQTTICRIEALQLSFKNMCKLKPLLNKWLEETDSSS [F50I] | -0.556
EDAPSSDDLEQFAKQFKQRRIKLGFTQADVGLALGTLYGNVFSQTTPCRFEALQLSFKNMCKLKPLLNKWLEETDSSS [I47P] | -0.661
EDAPSSDDLEQFAKQFKQRRIKLGFTQADVGLALMTLYGNVFSQTTICRFEALQLSFKNMCKLKPLLNKWLEETDSSS [G35M] | -0.4
EDAPSSDDLEQFAKQFKQRRIKLGFTQADVGLALGTLYGNVPSQTTICRFEALQLSFKNMCKLKPLLNKWLEETDSSS [F42P] | -0.265
EDAPSSDDLEQFAKQFKQRRIKLGFTQADVGLALGTLYGNVFSQTTICRFEALFLSFKNMCKLKPLLNKWLEETDSSS [Q54F] | -0.858
EDAPSSDDLEQFAKQFKQRRIKLGFTQADVPLALGTLYGNVFSQTTICRFEALQLSFKNMCKLKPLLNKWLEETDSSS [G31P] | -0.983
EDAPSSDDLEQFAKQFKQRRIKLGFTQADVGLALGCLYGNVFSQTTICRFEALQLSFKNMCKLKPLLNKWLEETDSSS [T36C] | -0.18
EDAPSSDDLEQFAKQFKQRRIKLGFTQADVGLALGTLYGNVFSQTTICRFEALQLSFKNMCKLKPLLNKTLEETDSSS [W70T] | -0.595
EDAPSSDDLEQFAKQFKQRRIKLGFTQADVGLALGTLYGNVFSQTTICRFEALQLSFKTMCKLKPLLNKWLEETDSSS [N59T] | -0.128
EDAPSSDDLEQFAKQFKQRRIKLGFTQADVGLALGTLYGNVFSQTTICRFEALQLSFKNMCKLKPLNNKWLEETDSSS [L67N] | -0.553
EDAPSSDDLEQFAKQFKQRRIKLGFTQADVGLALGTLYGNVFSQTTICRFEALQLYFKNMCKLKPLLNKWLEETDSSS [S56Y] | -0.745
EDAPSSDDLEQFAKQFKQRRIKLGFTQADVGLALGTLYGNVFSQTTICRFLALQLSFKNMCKLKPLLNKWLEETDSSS [E51L] | -1.08
EDAPSSDDLEQFAKQFKQRRIGLGFTQADVGLALGTLYGNVFSQTTICRFEALQLSFKNMCKLKPLLNKWLEETDSSS [K22G] | -0.349
EDAPSSDDLEQFAKQFKQRRIKLGFTQADVGLPLGTLYGNVFSQTTICRFEALQLSFKNMCKLKPLLNKWLEETDSSS [A33P] | -0.645
EDAPSSDDLEQFAKQFKQRRIKLGFTQADVGLALGTLYGNVFSQTTICRFEALQLSFKNMCKVKPLLNKWLEETDSSS [L63V] | -0.315
EDAPSSDDLEQFAKQFKQRRIKLGFTQADVGLALGTLYGNVFSQTTICRFEALQLSFKNMCKLKPLLNKWKEETDSSS [L71K] | -0.677
EDAPSSDDLEQFAKQFKQRRIKLGFTQADVGLALGTLYGNVFSQTTICRFEALQLSFKNMCKLKPLLNKWLEETDSSY [S78Y] | -0.008
EDAPSSDDLEQFAKQFKQRRIKLGFTQADVGLALGTLYGNVFSQTTICRFEALQLSFKNMCKLKPLLEKWLEETDSSS [N68E] | 0.082
EDAPSSDDLEQFAKQFKQRRIKLGFTQADVGLALGTLYGNVFSQITICRFEALQLSFKNMCKLKPLLNKWLEETDSSS [T45I] | -0.557
EDAPSSDDLEQFAKQFKQRRIKLGFTQADVGLALGTLYGNVFSQTTIVRFEALQLSFKNMCKLKPLLNKWLEETDSSS [C48V] | -0.151
EDAPSSDDLEQFAKQFKQRRIKLGFTQADVGLYLGTLYGNVFSQTTICRFEALQLSFKNMCKLKPLLNKWLEETDSSS [A33Y] | -0.221
EDAPSSDDLEQFAKQFKQRRYKLGFTQADVGLALGTLYGNVFSQTTICRFEALQLSFKNMCKLKPLLNKWLEETDSSS [I21Y] | 0.147
EDAPSSDDLEQFAKQFKQRRIKLGFTQADVGLALGTLYGNVFSQTTICRFEALQLKFKNMCKLKPLLNKWLEETDSSS [S56K] | -0.309
EDAPSSDDLEQFAKQFKQRRIKLGFTQADVGLALGTLYGNVFSQTTICRFEALQLSWKNMCKLKPLLNKWLEETDSSS [F57W] | -0.127
EDAPSSDDLEQFAKQFKQRRIKLGFTQADVGLALHTLYGNVFSQTTICRFEALQLSFKNMCKLKPLLNKWLEETDSSS [G35H] | -0.37
EDAPSSDDLEQFAKQFKQRRIKLGFTQADGGLALGTLYGNVFSQTTICRFEALQLSFKNMCKLKPLLNKWLEETDSSS [V30G] | -0.957
EDAPSSDDLEQFAKQFKQRRIKLGFTQADVGLALGTLYGNVFSQTTICRFEALQLSFKNMCKDKPLLNKWLEETDSSS [L63D] | -0.297
EDAPSSDDLEQFAKQFKQRRIKLGFTQADVGLALGTLYGNVFSQTTICRFEALQVSFKNMCKLKPLLNKWLEETDSSS [L55V] | -0.45
EDAPSSDDLEQFAKQFKQRRIKLGFTQADVGLALGTLYGNVFSQTTICRFEALQLSFKNMVKLKPLLNKWLEETDSSS [C61V] | 0.045
EDAPSSDDLEQFAKQFKQRTIKLGFTQADVGLALGTLYGNVFSQTTICRFEALQLSFKNMCKLKPLLNKWLEETDSSS [R20T] | -0.815
EDAPSSDDLEQFAKQFKQRRIKLGFTQADVGLALGTLYGNVFSQTTICRFEALQQSFKNMCKLKPLLNKWLEETDSSS [L55Q] | -0.645
EDAPSSDDLEQFAKQFKQRRIKLGFTQADVGLALGTCYGNVFSQTTICRFEALQLSFKNMCKLKPLLNKWLEETDSSS [L37C] | 0.206
EDAPSSDDLEQFAKQFKQRRIKLGFTQADVGLALGWLYGNVFSQTTICRFEALQLSFKNMCKLKPLLNKWLEETDSSS [T36W] | -0.532
